Reference for the values: PubChem BioAssay (NCI)

- Test system: SW-620 colon
- Experimental Details: NCI tumour cell line growth inhibition, 48 h
Here, each record is paired with measured TGI data.

# Molecule, TGI
records = [
    ("Cc1cc2c(c(S(=O)(=O)c3ccc(Cl)cc3[N+](=O)[O-])c1)NCCC2", "> 100 µM"),
    ("CC[C@H](C)[C@H](NC(=O)c1ccccn1)C(=O)N(C)[C@H](C[C@@H](OC(C)=O)c1nc(C(=O)N[C@@H](Cc2ccccc2)C[C@H](C)C(=O)OC)cs1)C(C)C", "> 100 µM"),
    ("O=C(CC(=O)n1nc(-c2ccccc2)c(N=Nc2ccccc2Cl)c1-c1ccccc1)Nc1ccc(Cl)cc1", "> 74 µM"),
    ("NC(N)=NN=C(c1ccccc1)c1ccccc1", "41.5 µM"),
    ("C[CH2][Sn]([CH2]C)([O]C(=O)c1ccccc1F)[O]C(=O)c1ccccc1F", "73.7 µM"),
    ("CCC(=O)Nc1ccc(NCC(=O)Nc2ccc(Cl)cc2)cc1", "74.9 µM"),
    ("CC(C)(C)/C(O)=C\\c1nc2ccc(C(F)(F)F)cc2[nH]c1=O", "> 100 µM"),
    ("CC(=O)NNc1nc(C)c(C(=O)/C=C/C=C/c2ccccc2)s1", "> 100 µM"),
    ("COc1cc(/C=C(\\NC(=O)c2ccccc2)c2nc3[nH]c(=S)[nH]c(=O)c3[nH]2)cc(OC)c1OC", "> 100 µM"),
    ("Cc1cn(CCCC2=NCCCN2)c(=O)[nH]c1=O", "> 100 µM"),
    ("O=C(Nc1ccc2[nH]c3ccccc3c2c1)c1ccccc1Cl", "> 100 µM"),
    ("CC[N+](CC)=c1cc2oc3cc(N(C)C)ccc3nc-2cc1C", "23 µM"),
    ("O=C(O)c1ccc(C(=O)Nc2cccc3ccccc23)c(C(=O)O)c1", "> 100 µM"),
    ("O=C(Nc1ncc(Cc2ccccc2)s1)c1sc2ccccc2c1Cl", "> 100 µM"),
    ("O=C1CC[C@H](NC(=O)Cc2ccccc2)C(=O)N1", "> 1250 µM"),
    ("COc1cc(Nc2ccnc(NCCNc3ccnc4cc(Cl)ccc34)n2)cc(OC)c1", "4.18 µM"),
    ("CC1(C)CC(C)(C)CC(O)(C2(O)CC(C)(C)CC(C)(C)C2)C1", "> 100 µM"),
    ("Cc1cn(C2CC(OC3CCCCO3)C(CO)O2)c(=O)[nH]c1=O (configuration not stated)", "> 100 µM"),
    ("c1ccc2c(c1)nnn2CN1CCOCC1", "> 100 µM"),
    ("CCNCCCNc1c2ccccc2nc2ccccc12", "1.46 µM"),
    ("CC(=O)OC1CN2CCC1CC2 (configuration not stated)", "> 100 µM"),
    ("O=S(=O)(c1ccc(Cl)cc1)c1ccccc1C1=NCCN1", "> 100 µM"),
]
